Data origin: a melting point compilation (Tetko et al.; mined from patent text by program, amines drawn as free bases though some values may be those of a salt)

| MOLECULE | melting point |
| --- | --- |
| CC(=O)NC[C@H]1CN(c2ccc(N3C[C@H]4CN(C(=O)OCc5ccccc5)C[C@H]4C3)c(F)c2)C(=O)O1 | 165 to 168 °C |
| CC(=O)OCC(ON1C(C)(C)CC(OC(=O)C(C)(C)C)CC1(C)C)c1ccccc1 (stereo not given) | 102 to 103 °C |
| Oc1cc2c(cc1O)-c1ccccc1C2 | 155 to 156 °C |
| COc1ccc(-c2ccc(C(=O)Nc3ccc4cc(CN5CCCCCC5)cnc4c3C)c(F)c2)cc1 | 171 to 172 °C |
| Cn1ccnc1S(=O)c1ccc(Cl)cc1 (stereo not given) | 96 to 97 °C |

====

Known melting point of a selection of compounds
MEASUREMENT TYPE: melting point

| COMPOUND | MEASUREMENT TYPE | VAL |
| --- | --- | --- |
| O=C(O)CS(=O)CC(=O)O | melting point | 118 to 119 °C |
| N#Cc1nc(N)c(-c2ccccc2)nc1C#N | melting point | 167 to 168 °C |
| CC(=O)Nc1ccc(SSc2ccc(NC(C)=O)cc2C(=O)NC(CC(C)C)C(=O)O)c(C(=O)NC(CC(C)C)C(=O)O)c1 (stereo not given) | melting point | 241 to 242 °C |
| N#CCCSCc1csc(=O)[nH]1 | melting point | 108 to 111 °C |
| COc1ccc(-c2nc(C(=O)N3CCN(C(=O)NC(C)C)CC3)sc2-c2ccc(OC)cc2)cc1 | melting point | 157 to 159 °C |
| CN(CC1=C(C#N)C(c2cccc3nonc23)c2c[nH]nc2N1)C(=O)OC(C)(C)C (stereo not given) | melting point | 207 °C |
| Cc1ccnc(SCc2nccc(SCCCSc3ccc4ncc([N+](=O)[O-])n4n3)c2C)n1 | melting point | 136 to 138 °C |
| Cc1nn2c(c1Cl)N=NC2CCNC(=O)c1ccccc1C(=O)O (stereo not given) | melting point | 162 to 166 °C |
| Nc1cc(C(=O)O)cc(S)c1Oc1ccccc1 | melting point | 199 to 200 °C |
| CCOC(=O)c1cncc(-c2cnc3c(c2)N(Cc2cc(F)ccc2F)CCN3)c1 | melting point | 169 to 172 °C |

====

Known melting point of a selection of molecules

| MOLECULE | melting point |
| --- | --- |
| O=C(NC[C@H]1CN(c2cc(F)c(N3CCC(n4cnnn4)CC3)c(F)c2)C(=O)O1)C1CC1 | 162 to 164 °C |
| CC(Cc1ccc(CCNS(=O)(=O)c2ccccc2)cc1)C(=O)O (stereo not given) | 113 to 115 °C |
| COC(=O)[C@@H]1CSCN1S(=O)(=O)c1ccc(Cl)c(COc2cccc3c(-n4ccnc4)cc(C)nc23)c1Cl | 60 °C |
| Cc1ccc(C)c(-c2cccc3c2OC(CN)C3)c1 (stereo not given) | > 225 °C |
| Cc1ccc(S(=O)(=O)n2ccc3c(Cl)ncnc32)cc1 | 143 °C |
| O=C(O)c1cn(-c2ccc(F)cc2)c2c(F)c(N3Cc4ccc(Cl)cc4C3)c(F)cc2c1=O | > 300 °C |
| CCCCNCc1ccc2cc(O)ccc2c1 | 108 to 112 °C |
| CN1CCOc2c(C(=O)O)cc(Cl)cc21 | 202 to 204 °C |
| O=C(CCS)NC1(C(=O)O)CCCC1 | 127 to 128 °C |
| CCCCCS(=O)(=O)NC(=O)CCCc1ccc(OCCOC)cc1Oc1ncc(C(F)(F)F)cc1Cl | 96 to 97 °C |

====

Known melting point of a selection of compounds
MEASUREMENT TYPE: melting point

| COMPOUND | VAL |
| --- | --- |
| CNC(=O)Nc1ccc2c(c1)C(=O)NC(=O)C2(C)C | 257 to 258 °C |
| CC(=O)Nc1cccc(NC(=O)C=C(C)C)c1 | 144 to 148 °C |
| CN1CCc2cc([N+](=O)[O-])c(O)cc2C(c2cccc3c2OCC3)C1 (single isomer, unassigned; (+)) | 122 to 123 °C |
| CC(C)(C)OC(=O)NCCCSc1ccncc1 | 72 to 74 °C |
| CCCC(=O)Nc1cccc(C2(c3cc(C(=O)CC)n(CC)c3)N=C(N)N(C)C2=O)c1 (centres undefined) | 201 to 205 °C |
| CCn1c2ccc(C(=O)CCCCCl)cc2c2cc(C(=O)CCCCCl)ccc21 | 94 to 95 °C |
| CC(C(=O)N(C)CCO)c1cc(C(C)(C)C)c(O)c(C(C)(C)C)c1 (centres undefined) | 66 °C |
| Cc1cc(C)n(-c2nc(Nc3cccc4cccnc34)c3ccccc3n2)n1 | 184 to 185 °C |
| O=C1COc2ccc(C3=Cc4cccnc4SC3c3ccccc3)cc2N1 (centres undefined) | 242 to 244 °C |

====

MEASUREMENT TYPE: melting point

| MOLECULE | VAL |
| --- | --- |
| O=c1cc(-c2ccccc2)cc2n1CCN2Cc1ccccc1 | 165 to 167 °C |
| CN(Cc1sc2c(=O)c(C(=O)NCc3ccc(Cl)cc3)cn(C)c2c1CO)CC(O)c1ccc2ccccc2n1 (stereo not given) | 196 to 198 °C |
| CC(C)C(C)(C)NC(=S)Nc1cc(Cl)cc(Cl)c1 | 132 to 134 °C |
| CCCCCCC1C(=O)OC2OC3(C)CCC4C(C)CCC1C24OO3 (single isomer, unassigned; (+)) | 80.5 to 82 °C |
| C1=CC2=NCCN2C=C1 | 178 to 180 °C |

====

Known melting point of a selection of molecules

| MOLECULE | melting point |
| --- | --- |
| CC(C#Cc1ccc(Cl)cc1)N(O)C(N)=O (centres undefined) | 159 to 161 °C |
| O=[N+]([O-])c1cc(C(F)(F)F)cc([N+](=O)[O-])c1Nc1ncc(Cl)cc1Cl | 85 to 87 °C |
| COc1c(Br)c(O)c(Br)c2nc(-c3ccc(O)cc3)oc12 | 246 to 248 °C |
| O=Cc1cc(-c2ccc(F)cc2F)ccc1OC(F)(F)F | 39 to 41 °C |
| COc1ccc(OC2OC(COCc3ccccc3)C(OCc3ccccc3)C(O)C2OCc2ccccc2)cc1 (centres undefined) | 84 to 86 °C |
| N#Cc1cc(N)ccc1N1CCC(N2CCCCC2)CC1 | 110 to 112 °C |
| CC1(C)CN=C2C(c3ccccc3)=[N+]([O-])c3cc(C(F)(F)F)ccc3N2C1 | 225 to 227 °C |
| Cn1ccnc1-c1ccc(C(=O)CNC(=O)[C@H](Cc2ccccn2)NC(=O)OC(C)(C)C)cc1 | 120 to 124 °C |
| CCCCc1nc2c(C(N)=O)cccc2n1Cc1ccc(-c2ccccc2-c2nnn[nH]2)cc1 | 235 to 236 °C |

====

MEASUREMENT TYPE: melting point

| COMPOUND SMILES | MEASUREMENT TYPE | VAL |
| --- | --- | --- |
| N#Cc1cc(C(N)=O)ccc1Cl | melting point | 193 °C |
| O=[N+]([O-])c1ccc(-n2nc(-c3ccccc3O)nc2-c2ccccc2O)cc1 | melting point | 180 to 183 °C |
| CC(=O)Nc1ccc(S(=O)(=O)Nc2nnc(S(N)(=O)=O)s2)cc1 | melting point | 280 to 281 °C |
| Brc1ccc2c(c1)N=C(N1CCN(c3ccccc3)CC1)c1cccc3c1N2CC3 | melting point | 171 to 173 °C |
| CC(C)OC(=O)Nc1cccc(-c2ccnc3c(C(=O)C4CCCC4)cnn23)c1 | melting point | 57 to 59 °C |
| COc1ccc(C(=O)Nc2cc(NC(=O)c3ccc(N(C)CCCN(C)C)cc3)ccc2C)cc1OC | melting point | 164 to 165 °C |
| COc1ccc(C=CC(=O)Nc2ccc(C)cc2C(=O)O)cc1OC | melting point | 190 to 191 °C |
| Fc1cccc(F)c1-c1nc2c(s1)NCCCC2 | melting point | 143 to 144 °C |
| CCS(=O)(=O)c1ccc(-n2cncc2-c2ccc([N+](=O)[O-])cc2)cc1 | melting point | 190 to 194 °C |

====

| COMPOUND | melting point |
| --- | --- |
| Cn1cc(-c2cccc(Br)c2)c(=O)c(-c2ccccc2Cl)c1 | 177 to 179 °C |
| CON(C)C(=O)Nc1c(C(=O)C2CCCCC2)[nH]c2cc(Cl)ccc12 | 208 to 210 °C |
| CCOC(=O)c1cnc2n(c1=O)C(C)CC=C2N(C)c1ccccc1 (stereo not given) | 140 to 142 °C |
| Cc1cc(C)cc(Sc2c(C(C)C)nc(C=NN)n2C)c1 | 118 to 119 °C |
| Fc1ccc(Cn2cnc3c(-c4ccco4)ncnc32)cc1 | 162 to 164 °C |
| O=C(NCC12CC3CC(CC(C3)C1)C2)c1cc(-c2cccnc2N2CCC[C@H]2C(=O)O)ccc1Cl | 121 to 125 °C |
| COC(=O)[C@@H](O)[C@@H](OC(C)=O)[C@H](OC(C)=O)[C@H](C=O)OC(C)=O | 104 to 110 °C |
| O=C(Nc1ccc2nc(CN3CCCCC3)ccc2c1)c1ccc(-c2ccc(F)cc2F)cc1 | 181 to 182 °C |
| O=c1ccc(-c2c(-c3ccccc3)nn3ccccc23)nn1C1CCCCC1=NO (stereo not given) | 238 to 240 °C |
| COc1ccc(Cc2cc(C(C)(C)C)cc(C(C)(C)C)c2O)cc1 | 84 to 85 °C |
| C=CC(=O)Oc1ccc(-c2cccc(OC(=O)C=C)c2)cc1 | 63.6 °C |
| COC(=O)c1cc(-c2ccc(SC)cc2)nn(CC2CC2)c1=O | 100 to 102 °C |
| O=C1N(N2CCCCC2)c2ccccc2C1(Cc1ccncc1)Cc1ccncc1 | 140 to 143 °C |
| CC(O)CCc1ccc(-c2ccccc2F)cc1 (stereo not given) | 59 to 60 °C |
| CC1(C)OC(=S)Nc2ccc(-c3cccc(F)c3)cc21 | 194 to 195 °C |
| CCOC(=O)c1c(C(F)(F)F)nc(C(F)(F)Cl)c(C(=O)OC)c1NN1CCCC1 | 101 to 103 °C |
| CCC(C)(C)OC(=O)NC(C)(Cc1c[nH]c2ccccc12)C(=O)NC(Cc1cccs1)C(N)=O (stereo not given) | 187 to 192 °C |
| N#Cc1cc(-c2ccccn2)nn1-c1ccc(NC(=O)c2ccncc2F)cc1 | 118 to 119 °C |
| Cc1cc(C)c(NC(=O)CCCCCl)c(Cl)c1 | 80.6 to 82.9 °C |
| OCC1COC2(CC(c3ccccc3)SC(c3ccccc3)C2)O1 (stereo not given) | 116 to 118 °C |
